# System: PANC-08-13
# test-details: cells
# Type: functional, cell-based
# measurement-conditions: Homo sapiens
# Description: SANGER: Inhibition of human PANC-08-13 cell growth in a cell viability assay.
measurement-name: IC50

input: If you can, please state the reported IC50 value of Cc1ccc(-n2nc(C(C)(C)C)cc2NC(=O)Nc2ccc(OCCN3CCOCC3)c3ccccc23)cc1 .
output: > 10 µM

input: If you can, please state the reported IC50 value of OC[C@H](Cc1ccccc1)Nc1nc(Oc2ccc3c(c2)CCC3)nc2c1ncn2Cc1ccc(-c2ccccc2)cc1 .
output: > 10.2 µM

input: If you can, please state the reported IC50 value of NC(=O)Nc1cc(-c2cccc(F)c2)sc1C(=O)N[C@H]1CCCNC1 .
output: 0.661 µM

input: If you can, please state the reported IC50 value of CC1=C(/C=C/C(C)=C/C=C/C(C)=C/C(=O)O)C(C)(C)CCC1 .
output: > 10 µM

input: If you can, please state the reported IC50 value of CS(=O)(=O)N1CCN(Cc2cc3nc(-c4cccc5[nH]ncc45)nc(N4CCOCC4)c3s2)CC1 .
output: > 4 µM

###

For each record, write down the corresponding pIC50.
# Tested on: DMS-53;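 note: cell viability assay measuring growth inhibition of human DMS-53 cells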
# test-details: cells
# Type: functional, cell-based
# measurement-conditions: Homo sapiens
# Description: SANGER: Inhibition of human DMS-53 cell growth in a cell viability assay.
pIC50: −log10 of the molar value.

input: If you can, please state the reported pIC50 value of OC[C@H](Cc1ccccc1)Nc1nc(Oc2ccc3c(c2)CCC3)nc2c1ncn2Cc1ccc(-c2ccccc2)cc1 .
output: < 4.99

input: If you can, please state the reported pIC50 value of O=S(=O)(O)c1ccc2cc(/N=N/c3cc(S(=O)(=O)O)c4cccnc4c3O)ccc2c1 .
output: < 4.80

input: If you can, please state the reported pIC50 value of COc1ccc(-c2cc3nccn3c(Nc3ncccc3C(N)=O)n2)cc1OC .
output: < 5.10

input: If you can, please state the reported pIC50 value of COC(=O)[C@H](CCSC)NC(=O)c1ccc(NC[C@@H](N)CS)cc1-c1ccccc1 .
output: < 5.99

###

# Tested on: 786-0
# test-details: cells
# Assay type: functional, cell-based
# measurement-conditions: Homo sapiens
# Description: SANGER: Inhibition of human 786-0 cell growth in a cell viability assay.
pIC50: −log10 of the molar value.
measurement-name: pIC50

input: Query for 786-0: what pIC50 does the record show for CN(NC(=O)CC(=O)NN(C)C(=S)c1ccccc1)C(=S)c1ccccc1 ?
output: 7.89

input: Query for 786-0: what pIC50 does the record show for CC1(C)CCC(c2ccc(Cl)cc2)=C(CN2CCN(c3ccc(C(=O)NS(=O)(=O)c4ccc(N[C@H](CCN5CCOCC5)CSc5ccccc5)c(S(=O)(=O)C(F)(F)F)c4)cc3)CC2)C1 ?
output: < 5.70

input: Query for 786-0: what pIC50 does the record show for CC1=C(/C=C/C(C)=C/C=C/C(C)=C/C(=O)O)C(C)(C)CCC1 ?
output: < 5.00

input: Query for 786-0: what pIC50 does the record show for Cc1ccc(-n2nc(C(C)(C)C)cc2NC(=O)Nc2ccc(OCCN3CCOCC3)c3ccccc23)cc1 ?
output: < 5.00

input: Query for 786-0: what pIC50 does the record show for COC(=O)[C@H](CCSC)NC(=O)c1ccc(NC[C@@H](N)CS)cc1-c1ccccc1 ?
output: < 5.99

###

# Test system: RT-4
# test-details: SANGER: Inhibition of human RT4 cell growth in a cell viability assay.
# Assay type: functional, cell-based
measurement-name: IC50

input: If you can, please state the reported IC50 value of CCCCCCCCCCCC1=C(O)C(=O)C=C(O)C1=O .
output: > 32 µM
